# Assayed target: Methyl-CpG-binding domain protein 4 (Homo sapiens)
# Condition label: Compound Concentration 10.0 uM, Hit No
# Description: Inhibition of MBD4 by quantifying inhibition of MBD4-mediated cleavage and dissociation of quenched duplex DNA oligonucleotides, measured as fluorescence at 594 nm. To generate a functional strand incision and increase turn-over this assay is coupled to APE1.
Measured attribute: inhibition (%)
Report the value in % with no unit label.

INPUT: Give the measured inhibition for "CCCCC1=NC2(CCCC2)C(=O)N1Cc1ccc(-c2ccccc2-c2nnn[nH]2)cc1"
OUTPUT: 9.56

INPUT: Give the measured inhibition for "C[C@H](c1ccnc(Nc2nc3ccc(-c4cc(N(C)C)ncn4)cc3[nH]2)c1)N1CCN(C(=O)CC(F)(F)F)CC1"
OUTPUT: 37.6

INPUT: Give the measured inhibition for "CNc1ncc2cc(-c3ccc(-c4ncccc4F)cc3Cl)c(=O)n(C[C@H]3OC[C@H](N)CO3)c2n1"
OUTPUT: 9.96

INPUT: Give the measured inhibition for "Cc1cc([C@@H](C)Nc2ccccc2C(=O)O)c2nc(N3CCOCC3)cc(=O)n2c1"
OUTPUT: -6.46

* * *

# Assayed target: Methyl-CpG-binding domain protein 4 (Homo sapiens);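 also: MBD4 activity read as fluorescence at 594 nm from cleavage and release of a quenched duplex DNA oligonucleotide, with APE1 coupled to incise the strand and raise turnover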
# Condition label: Compound Concentration 10.0 uM, Hit No
For each entry below, report its inhibition value.
Report the value in % with no unit label.

INPUT: Give the measured inhibition for "CN(C)C(=O)c1sc2nc(N3CCC(S(C)(=O)=O)CC3)cc(C(F)(F)F)c2c1N"
OUTPUT: 1.76

INPUT: Give the measured inhibition for "CC(C)NC(=O)c1ccc(C#Cc2ccncc2)cn1"
OUTPUT: -1.07

INPUT: Give the measured inhibition for "O=C(O)c1ccc2c(c1)nc(Nc1cccc(Cl)c1)c1ccncc12"
OUTPUT: -3.96

INPUT: Give the measured inhibition for "O=C(NNS(=O)(=O)c1ccccc1F)c1cc(F)cc(-c2ccccn2)c1"
OUTPUT: 80.8

INPUT: Give the measured inhibition for "COc1ccc2cc(S(=O)(=O)N[C@H](CC(=O)N[C@H](Cc3ccc(CN4[C@H](C)CCC[C@@H]4C)cc3)C(=O)N(C)C(C)C)c3ccc4c(c3)OCO4)ccc2c1"
OUTPUT: 19.6

INPUT: Give the measured inhibition for "CCCCN(CCCC)C(=O)CN1C[C@@H](c2cc(OC)c3c(c2)OCO3)[C@H](C(=O)O)[C@H]1CC(C)(C)CCC"
OUTPUT: 63.4

INPUT: Give the measured inhibition for "CN[C@@H]1CCc2[nH]c3ccc(C(N)=O)cc3c2C1"
OUTPUT: 14.9

INPUT: Give the measured inhibition for "COc1cc(Nc2nc(C)cc(-c3cnn4nc(OC)ccc34)n2)cc(C(F)(F)F)c1"
OUTPUT: 26.4

INPUT: Give the measured inhibition for "N#CN1CC[C@H](C(=O)Nc2nc3c(s2)CN(C(=O)CN=[N+]=[N-])CC3)C1"
OUTPUT: 53.6

* * *

# Assayed target: Endonuclease 8-like 2 (Homo sapiens) (UniProt Q969S2);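 also: fluorescence at 594 nm reports NEIL2 cutting and release of a quenched double-stranded DNA oligo substrate, reduced signal read as inhibition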
# Sequence (whole entry): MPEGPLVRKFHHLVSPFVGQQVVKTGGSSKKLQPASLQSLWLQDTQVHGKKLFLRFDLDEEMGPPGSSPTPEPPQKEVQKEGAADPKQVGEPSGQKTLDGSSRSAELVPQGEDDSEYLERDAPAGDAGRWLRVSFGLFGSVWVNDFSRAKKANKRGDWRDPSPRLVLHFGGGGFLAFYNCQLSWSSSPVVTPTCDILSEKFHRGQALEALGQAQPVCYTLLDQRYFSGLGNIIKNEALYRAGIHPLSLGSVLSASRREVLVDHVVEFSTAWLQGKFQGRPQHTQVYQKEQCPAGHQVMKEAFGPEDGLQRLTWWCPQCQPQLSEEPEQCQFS
# Condition label: Compound Concentration 10.0 uM, Hit No
# Description: Inhibition of NEIL2 by quantifying inhibition of NEIL2-mediated cleavage and dissociation of quenched duplex DNA oligonucleotides, measured as fluorescence at 594 nm.
Measured attribute: inhibition (%)
Report the value in % with no unit label.

INPUT: Give the measured inhibition for "CCOC(=O)c1ncn2c1[C@@H]1CCCN1C(=O)c1cc(OC)ccc1-2"
OUTPUT: -4.43

INPUT: Give the measured inhibition for "Cn1cc(Nc2nccc(N3CC4CCC(C3)N4C(=O)[C@@H]3CC3(F)F)n2)cn1"
OUTPUT: -8.92

INPUT: Give the measured inhibition for "COC(=O)c1cc2c(cn1)[nH]c1ccccc12"
OUTPUT: 22.6

INPUT: Give the measured inhibition for "COc1ccc(OC)c(-c2ccc(NC(=O)c3ccncc3F)cc2)c1"
OUTPUT: -1.37

INPUT: Give the measured inhibition for "COc1ccc2c(c1)O[C@@H](c1ccc(OC)c(OC)c1)C[C@H]2NC(=O)C1(c2ccc3c(c2)OC(F)(F)O3)CC1"
OUTPUT: -1.51

INPUT: Give the measured inhibition for "O=C(O)CCCc1cc2cc(Cl)ccc2n1S(=O)(=O)c1ccc2ncsc2c1"
OUTPUT: 2.32

INPUT: Give the measured inhibition for "CN(C)c1ncnc(-c2ccc3nc(Nc4cc(CN5CCN(C(=O)CC(F)(F)F)CC5)ccn4)[nH]c3c2)c1Cl"
OUTPUT: -5.65

INPUT: Give the measured inhibition for "O=C(Nc1cccnc1)c1cc(-c2ccnc(F)c2)ccc1OCc1ccccc1"
OUTPUT: -3.53

INPUT: Give the measured inhibition for "Cc1cccc(-c2cnc3occ(-c4ccc(C(=O)O)c(C5CCCC5)c4)c3c2)c1"
OUTPUT: -2.46

INPUT: Give the measured inhibition for CC[S+]([O-])c1nc(-c2cccc(OCc3ccccc3)c2)cc(C(F)(F)F)n1 (stereo not given)
OUTPUT: 10.8
